B1: CPEB3 Ribozyme (parent)
chain: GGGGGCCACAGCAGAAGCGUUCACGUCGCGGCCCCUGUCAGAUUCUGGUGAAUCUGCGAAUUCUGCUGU

# Variants of: B1
# testMethodNotes: self-cleavage, relative activity (ratio to wild type); higher = more cleavage; co-transcriptional
Threshold rule: self-cleavage greater than or equal to 0.3 is y; below that, n.

Worked cases, answers included:
G17U U26A    y
A8G A60G    y
G47A U55C    y
C33A U49C    y

Exercise: Threshold query (self-cleavage >= 0.3) on G1U U36G
Solution: n
